- System: Cysteinyl leukotriene receptor 1 (Cavia porcellus)
- testProtocol: Antagonist activity tested against Cysteinyl leukotriene D4 receptor
measuredAttribute: pKB

>>> result("c1ccc(CCCCOc2ccc(-c3nnn(CCCCCCCCc4nnn[nH]4)n3)cc2)cc1")
5.7
>>> result("O=C(O)c1ccccc1Cn1nnc(-c2ccc(CSc3ccc4ccccc4n3)cc2)n1")
5.87
>>> result("N#CNC(=O)CCCCn1nnc(-c2ccc(OCCCCc3ccccc3)cc2)n1")
6.1
>>> result("c1ccc(CCCCOc2ccc(-c3nnn(CCCCc4nnn[nH]4)n3)cc2)cc1")
6.91
>>> result("O=C(O)c1ccccc1Cn1nnc(-c2cccc(CSc3ccc4ccccc4n3)c2)n1")
7.02
